assayed-target: human MOPr (Homo sapiens, UniProt P35372)
Sequence (P35372 whole entry): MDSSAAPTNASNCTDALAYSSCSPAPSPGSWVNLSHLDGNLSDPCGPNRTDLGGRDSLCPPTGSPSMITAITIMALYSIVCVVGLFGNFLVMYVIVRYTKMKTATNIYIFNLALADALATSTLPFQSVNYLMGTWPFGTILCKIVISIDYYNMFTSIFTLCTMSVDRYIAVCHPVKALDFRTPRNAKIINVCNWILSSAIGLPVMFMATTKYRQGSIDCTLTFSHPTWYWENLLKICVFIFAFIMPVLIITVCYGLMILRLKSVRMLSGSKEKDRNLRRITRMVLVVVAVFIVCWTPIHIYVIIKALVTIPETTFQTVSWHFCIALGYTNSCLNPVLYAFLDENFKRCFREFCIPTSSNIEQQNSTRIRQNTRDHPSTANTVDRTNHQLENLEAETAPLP
assay-info: cell-based
Type: cell-based
Parameters: expressed in transfected cells; HEK293-Glo20F cells (cAMP)
details: Table 3B; read-out: MOPr (cAMP) EC50
Procedure: Stimulation by endogenous RF-amide peptides or test compounds for [^35S]-GTPγS binding to membranes from CHO cells expressing human NPFF1R or NPFF2R, were examined as reported. 1.6. […] The cAMP responses were measured in presence of D-luciferin (1 mM).
Starred links: 1 amine or outer side, 2 acyl side, 3 side chain; linkers in the order of their positions; H or OH if unused. Non-standard residues stand in square brackets, D forms with d. Residues, ends and D or L forms follow the SMILES beside them. *: point of attachment. Nva(5-(4-Bn-piperidin-1-yl)) = N[C@@H](CCCN1CCC(Cc2ccccc2)CC1)C(=O)O; X5 = O=C1[C@@H](N[*:1])Cc2ccccc2CN1CCCC(=O)[*:2]; X1 = O=C1[C@@H](N[*:1])Cc2ccccc2CN1CCC(=O)[*:2]; Tic(7-OH) = O=C(O)[C@@H]1Cc2ccc(O)cc2CN1; Dmt = Cc1cc(O)cc(C)c1C[C@H](N)C(=O)O; Nicotinoyl = O=C(c1cccnc1)*; dNMeA = CN[C@H](C)C(=O)O; Nlys = NCCCCNCC(=O)O
experimental-readout: pEC50
Scale for pEC50: -log10 of concentration given in mol/L; no unit attached.

# annotated cases, reported pEC50 shown
| molecule | pEC50 |
| --- | --- |
| Cc1cc(O)cc(C)c1C[C@H](N)C(=O)N[C@H](CCCCN)C(=O)N[C@H]1Cc2ccccc2CN(CCC(=O)N[C@@H](CCCN2CCC(Cc3ccccc3)CC2)C(=O)N[C@@H](Cc2ccccc2)C(N)=O)C1=O [DP0029, H-Dmt-D-Lys-Aba-β-Ala-Bpa-Phe-NH2] (H-[Dmt][dK][X1][Nva(5-(4-Bn-piperidin-1-yl))]F-NH2) | 7.59 |
| Cc1cc(O)cc(C)c1C[C@H](N)C(=O)N(C)[C@H](C)C(=O)N[C@H]1Cc2ccccc2CN(CCCC(=O)N[C@@H](CCCN2CCC(Cc3ccccc3)CC2)C(=O)N[C@@H](Cc2ccccc2)C(N)=O)C1=O [DP0017, H-Dmt-N(Me)-D-Ala-AbaGABA-Bpa-Phe-NH2] (H-[Dmt][dNMeA][X5][Nva(5-(4-Bn-piperidin-1-yl))]F-NH2) | 7.85 |
| Cc1cc(O)cc(C)c1C[C@H](N)C(=O)N(C)[C@H](C)C(=O)N[C@H]1Cc2c(ccc3ccccc23)CN(CC(=O)N[C@@H](CCCN2CCC(Cc3ccccc3)CC2)C(=O)N[C@@H](Cc2ccccc2)C(N)=O)C1=O | 8.28 |
| Cc1cc(O)cc(C)c1C[C@H](N)C(=O)N1CCC[C@@H]1C(=O)N[C@H]1Cc2ccccc2CN(CCC(=O)N[C@@H](CCCN2CCC(Cc3ccccc3)CC2)C(=O)N[C@@H](Cc2ccccc2)C(N)=O)C1=O [DP0008, H-Dmt-D-Pro-Aba-β-Ala-Bpa-Phe-NH2] (H-[Dmt][dP][X1][Nva(5-(4-Bn-piperidin-1-yl))]F-NH2) | 7.97 |
| N=C(N)NCCC[C@@H](NC(=O)[C@@H]1Cc2ccc(O)cc2CN1)C(=O)N[C@H]1Cc2ccccc2CN(CCC(=O)N[C@@H](CCCN2CCC(Cc3ccccc3)CC2)C(=O)N[C@@H](Cc2ccccc2)C(N)=O)C1=O [DP0031, 7-OH-Tic-D-Arg-Aba-β-Ala-Bpa-Phe-NH2] (H-[Tic(7-OH)][dR][X1][Nva(5-(4-Bn-piperidin-1-yl))]F-NH2; N-terminus assumed) | 5.44 |
| Cc1cc(O)cc(C)c1C[C@H](N)C(=O)N[C@H](CCCNC(=N)N)C(=O)N[C@H]1Cc2ccccc2CN(CCCC(=O)N[C@@H](CCCN2CCC(Cc3ccccc3)CC2)C(=O)N[C@@H](Cc2ccccc2)C(N)=O)C1=O [DP0018, H-Dmt-D-Arg-AbaGABA-Bpa-Phe-NH2] (H-[Dmt][dR][X5][Nva(5-(4-Bn-piperidin-1-yl))]F-NH2) | 8.26 |
| Cc1cc(O)cc(C)c1C[C@H](N)C(=O)N[C@H](CCCNC(=N)N)C(=O)N[C@H]1Cc2ccccc2CN(CCC(=O)N[C@@H](CCCN2CCC(Cc3ccccc3)CC2)C(=O)N[C@@H](Cc2ccccc2)C(N)=O)C1=O | 7.74 |
| Cc1cc(O)cc(C)c1C[C@H](N)C(=O)N[C@H](CCCCNC(=O)c1cccnc1)C(=O)N[C@H]1Cc2ccccc2CN(CCC(=O)N[C@@H](CCCN2CCC(Cc3ccccc3)CC2)C(=O)N[C@@H](Cc2ccccc2)C(N)=O)C1=O [DP0034, H-Dmt-D-Lys(Nic)-Aba-β-Ala-Bpa-Phe-NH2] (H-[Dmt][dK](Nicotinoyl)[X1][Nva(5-(4-Bn-piperidin-1-yl))]F-NH2) | 8.41 |

I'd like to know its pEC50. The molecule in question is Cc1cc(O)cc(C)c1C[C@H](N)C(=O)N[C@H](CCCNC(=N)N)C(=O)N[C@H]1Cc2ccccc2CN(CCC(=O)N[C@@H](CCCN2CCC(Cc3ccccc3)CC2)C(=O)N[C@@H](Cc2ccc(O)cc2)C(N)=O)C1=O [DP0004, H-Dmt-D-Arg-Aba-β-Ala-Bpa-Tyr-NH2] (H-[Dmt][dR][X1][Nva(5-(4-Bn-piperidin-1-yl))]Y-NH2)
8.38

Could you share which pEC50 value was measured for Cc1cc(O)cc(C)c1C[C@H](N)C(=O)N(CCCCN)CC(=O)N[C@H]1Cc2ccccc2CN(CCC(=O)N[C@@H](CCCN2CCC(Cc3ccccc3)CC2)C(=O)N[C@@H](Cc2ccccc2)C(N)=O)C1=O [DP0035, H-Dmt-Nlys-Aba-β-Ala-Bpa-Phe-NH2] (H-[Dmt][Nlys][X1][Nva(5-(4-Bn-piperidin-1-yl))]F-NH2) ?
7.32

Name the reported pEC50 value associated with the molecule Cc1cc(O)cc(C)c1C[C@H](N)C(=O)N[C@H](CCCNC(=N)N)C(=O)N[C@@H](Cc1ccccc1)C(=O)N(C)CC(=O)N[C@@H](CCCN1CCC(Cc2ccccc2)CC1)C(=O)N[C@@H](Cc1ccccc1)C(N)=O [DP0024, H-Dmt-D-Arg-Phe-N(Me)Gly-Bpa-Phe-NH2] (HELM PEPTIDE1{[Cc1cc(O)cc(C)c1C[C@H](N)C(=O)[*:2]].[dR].F.[Sar].[O=C([C@H](CCCN1CCC(Cc2ccccc2)CC1)N[*:1])[*:2]].F.[am]}$$$$V2.0)
8.00

Reported pEC50, molecule Cc1cc(O)cc(C)c1C[C@H](N)C(=O)N[C@H](CCCNC(=N)N)C(=O)N[C@H]1Cc2ccccc2CN(CCC(=O)N[C@@H](CCCN2CCC(Cc3ccccc3)CC2)C(=O)N[C@H](C(N)=O)C(C)C)C1=O [DP0001, H-Dmt-D-Arg-Aba-β-Ala-Bpa-Val-NH2] (H-[Dmt][dR][X1][Nva(5-(4-Bn-piperidin-1-yl))]V-NH2) : ____
7.77

----------
assayed-target: human MOPr (Homo sapiens, UniProt P35372)
assay-info: BRET1 β-arrestin-2 recruitment assay
Format: cell-based
Design: expressed in transfected cells; host or cells: HEK293 cells stably expressing eYFP-β-arrestin-2, transiently transfected with the Rluc8-MOP plasmid
details: Table 3B; — = non-detectable recruitment; read-out: MOPr (β-arrestin-2) EC50
Starred links: 1 amine or outer side, 2 acyl side, 3 side chain; linkers in the order of their positions; H or OH if unused. Non-standard residues stand in square brackets, D forms with d. Residues, ends and D or L forms follow the SMILES beside them. Nva(5-(4-Bn-piperidin-1-yl)) = N[C@@H](CCCN1CCC(Cc2ccccc2)CC1)C(=O)O; X1 = O=C1[C@@H](N[*:1])Cc2ccccc2CN1CCC(=O)[*:2]; Dmt = Cc1cc(O)cc(C)c1C[C@H](N)C(=O)O
experimental-readout: pEC50
Scale: negative log10 of molar concentration, which is what pEC50 denotes.

Dear colleague, I am looking for the recorded pEC50 of the following compound: CC[C@H](C)[C@H](NC(=O)[C@H](CCCN1CCC(Cc2ccccc2)CC1)NC(=O)CCN1Cc2ccccc2C[C@H](NC(=O)[C@@H](CCCNC(=N)N)NC(=O)[C@@H](N)Cc2c(C)cc(O)cc2C)C1=O)C(N)=O [DP0002, H-Dmt-D-Arg-Aba-β-Ala-Bpa-Ile-NH2] (H-[Dmt][dR][X1][Nva(5-(4-Bn-piperidin-1-yl))]I-NH2)
7.35

----------
assayed-target: human MOPr (Homo sapiens)
assay-info: BRET1 β-arrestin-2 recruitment assay
Format: cell-based
Set-up: expressed in transfected cells; host or cells: HEK293 cells stably expressing eYFP-β-arrestin-2, transiently transfected with the Rluc8-MOP plasmid
details: read-out: MOPr (β-arrestin-2) Emax
Starred links: 1 amine or outer side, 2 acyl side, 3 side chain; linkers in the order of their positions; H or OH if unused. Non-standard residues stand in square brackets, D forms with d. Residues, ends and D or L forms follow the SMILES beside them. Nva(5-(4-Bn-piperidin-1-yl)) = N[C@@H](CCCN1CCC(Cc2ccccc2)CC1)C(=O)O; X1 = O=C1[C@@H](N[*:1])Cc2ccccc2CN1CCC(=O)[*:2]; Dmt = Cc1cc(O)cc(C)c1C[C@H](N)C(=O)O; NMeβAla = CN(CCC(=O)[*:2])[*:1]
experimental-readout: Emax

Illustrative cases are given below, each with its answer.
| compound | experimental-readout | obs-value |
| --- | --- | --- |
| Cc1cc(O)cc(C)c1C[C@H](N)C(=O)N[C@H](CCCNC(=N)N)C(=O)N[C@@H](Cc1ccccc1)C(=O)N(C)CC(=O)N[C@@H](CCCN1CCC(Cc2ccccc2)CC1)C(=O)N[C@H](C(N)=O)C(C)C [DP0025, H-Dmt-D-Arg-Phe-N(Me)Gly-Bpa-Val-NH2] (HELM PEPTIDE1{[Cc1cc(O)cc(C)c1C[C@H](N)C(=O)[*:2]].[dR].F.[Sar].[O=C([C@H](CCCN1CCC(Cc2ccccc2)CC1)N[*:1])[*:2]].V.[am]}$$$$V2.0) | Emax | ~114% |
| Cc1cc(O)cc(C)c1C[C@H](N)C(=O)N[C@H](CCCNC(=N)N)C(=O)N[C@@H](Cc1ccccc1)C(=O)NCCC(=O)N[C@@H](CCCN1CCC(Cc2ccccc2)CC1)C(=O)N[C@@H](Cc1ccccc1)C(N)=O [DP0019, H-Dmt-D-Arg-Phe-β-Ala-Bpa-Phe-NH2] (HELM PEPTIDE1{[Cc1cc(O)cc(C)c1C[C@H](N)C(=O)[*:2]].[dR].F.[bAla].[O=C([C@H](CCCN1CCC(Cc2ccccc2)CC1)N[*:1])[*:2]].F.[am]}$$$$V2.0) | Emax | 53% |
| Cc1cc(O)cc(C)c1C[C@H](N)C(=O)N[C@H](CCCNC(=N)N)C(=O)N[C@H]1Cc2ccccc2CN(CCC(=O)N[C@@H](CCCN2CCC(Cc3ccccc3)CC2)C(=O)N[C@H](Cc2ccccc2)C(N)=O)C1=O | Emax | 59% |
| Cc1cc(O)cc(C)c1C[C@H](N)C(=O)N[C@H](CCCNC(=N)N)C(=O)N[C@@H](Cc1ccccc1)C(=O)N(C)CCC(=O)N[C@@H](CCCN1CCC(Cc2ccccc2)CC1)C(=O)N[C@@H](Cc1ccccc1)C(N)=O [DP0013, H-Dmt-D-Arg-Phe-N(Me)-β-Ala-Bpa-Phe-NH2] (H-[Dmt][dR]F[NMeβAla][Nva(5-(4-Bn-piperidin-1-yl))]F-NH2) | Emax | 101% |

Quick one: Emax of Cc1cc(O)cc(C)c1C[C@H](N)C(=O)N[C@H](CCCNC(=N)N)C(=O)N[C@H]1Cc2ccccc2CN(CCC(=O)N[C@@H](CCCN2CCC(Cc3ccccc3)CC2)C(=O)N[C@@H](Cc2ccc(O)cc2)C(N)=O)C1=O [DP0004, H-Dmt-D-Arg-Aba-β-Ala-Bpa-Tyr-NH2] (H-[Dmt][dR][X1][Nva(5-(4-Bn-piperidin-1-yl))]Y-NH2) ?
64%

// lookup Emax for Cc1cc(O)cc(C)c1C[C@H](N)C(=O)N[C@H](CCCNC(=N)N)C(=O)N[C@H]1Cc2ccccc2CN(CCC(=O)N[C@@H](CCCN2CCc3ccccc3C2)C(=O)N[C@@H](Cc2ccccc2)C(N)=O)C1=O
~50%
